B1: Pistol ribozyme (parent)
chain: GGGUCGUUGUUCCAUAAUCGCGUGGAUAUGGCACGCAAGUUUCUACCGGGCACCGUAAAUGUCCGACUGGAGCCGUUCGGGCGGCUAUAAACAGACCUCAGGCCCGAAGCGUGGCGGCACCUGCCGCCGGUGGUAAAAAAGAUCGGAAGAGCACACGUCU

Variants of: B1
PROTOCOL NOTES: aptazyme ON/OFF ratio, guanine; higher = stronger switching; co-transcriptional cleavage with and without guanine
MEASUREMENT LABEL: aptazyme ON/OFF ratio
Please reply with the value in numeric form only.

U7G U8G G9A U10G U11A C12G has a reported aptazyme ON/OFF ratio of 1.15

U7G G9A U10A C12G C13A has a reported aptazyme ON/OFF ratio of 1.09

U7A G9C U10C U11G C13A has a reported aptazyme ON/OFF ratio of 1.06

U7A U8A G9U U10C U11G C12A C13U has a reported aptazyme ON/OFF ratio of 1.18

U7A G9U U11G C13G has a reported aptazyme ON/OFF ratio of 1.04

U7C U8G G9C U11C C12G C13U has a reported aptazyme ON/OFF ratio of 1.27

U8G G9U U10C U11A C12U has a reported aptazyme ON/OFF ratio of 1.11

U7C U8G G9A U10G C12A has a reported aptazyme ON/OFF ratio of 1.37

U7C U8A G9C U10C C12A has a reported aptazyme ON/OFF ratio of 1.04

U8G U10G U11A C12U C13U has a reported aptazyme ON/OFF ratio of 1.26

U7C U8A G9A U11G C12U C13U has a reported aptazyme ON/OFF ratio of 1.18

U7C U10G U11C C12A C13G has a reported aptazyme ON/OFF ratio of 1.11

U7A U8G G9A U10C C13A has a reported aptazyme ON/OFF ratio of 1.03

U7G U8C G9U C12A C13A has a reported aptazyme ON/OFF ratio of 1.34

U7A U8A U10C U11G C12A C13A has a reported aptazyme ON/OFF ratio of 1.12

U7C U8A G9C U11A C12A C13U has a reported aptazyme ON/OFF ratio of 1.15

U7C U10A C12U has a reported aptazyme ON/OFF ratio of 1.09

U8G U11G C12U C13A has a reported aptazyme ON/OFF ratio of 1.22

U7G U8A G9A U10C U11C C12U C13U has a reported aptazyme ON/OFF ratio of 1.03

U8A G9C C12G C13A has a reported aptazyme ON/OFF ratio of 1.2

U7C U8G G9A U10A U11A C12G C13U has a reported aptazyme ON/OFF ratio of 1.21

U7A U8A G9C U10G U11C C12U C13A has a reported aptazyme ON/OFF ratio of 1.15
